ASSAY_NOTES: Solid stability test of the crystal forms (influence factors and acceleration tests; appearance, XRPD, HPLC content and impurities)
Assay type: physicochemical
CONDITION_INFO: High humidity (room temperature/relative humidity of 92.5%, open), 5 days
READOUT_TYPE: Appearance

Past entries and their recorded results:
C=CC(=O)N[C@H]1COC[C@H]1Nc1ncc(/C=C(\F)c2c(Cl)c(OC)cc(OC)c2Cl)cn1 [Crystal Form D] | Off-white
C=CC(=O)N[C@H]1COC[C@H]1Nc1ncc(/C=C(\F)c2c(Cl)c(OC)cc(OC)c2Cl)cn1 [Crystal Form B] | Off-white
C=CC(=O)N[C@H]1COC[C@H]1Nc1ncc(/C=C(\F)c2c(Cl)c(OC)cc(OC)c2Cl)cn1.CS(=O)(=O)O [Crystal Form E] | White
C=CC(=O)N[C@H]1COC[C@H]1Nc1ncc(/C=C(\F)c2c(Cl)c(OC)cc(OC)c2Cl)cn1.CS(=O)(=O)O [Crystal Form F] | White
C=CC(=O)N[C@H]1COC[C@H]1Nc1ncc(/C=C(\F)c2c(Cl)c(OC)cc(OC)c2Cl)cn1 [Crystal Form A] | Off-white

The record that follows has no Appearance shown yet.
QUERY: What value of Appearance has been reported for the following compound? C=CC(=O)N[C@H]1COC[C@H]1Nc1ncc(/C=C(\F)c2c(Cl)c(OC)cc(OC)c2Cl)cn1 [Crystal Form C]
RESULT: Off-white

* * *

ASSAY_NOTES: Solid stability test of the crystal forms (influence factors and acceleration tests; appearance, XRPD, HPLC content and impurities)
Type: physicochemical
CONDITION_INFO: conclusion of influence factors and acceleration tests
READOUT_TYPE: stability under acceleration conditions, conclusion in words

Worked examples, 4 molecules total:
C=CC(=O)N[C@H]1COC[C@H]1Nc1ncc(/C=C(\F)c2c(Cl)c(OC)cc(OC)c2Cl)cn1 [Crystal Form B] | superior
C=CC(=O)N[C@H]1COC[C@H]1Nc1ncc(/C=C(\F)c2c(Cl)c(OC)cc(OC)c2Cl)cn1 [Crystal Form C] | good
C=CC(=O)N[C@H]1COC[C@H]1Nc1ncc(/C=C(\F)c2c(Cl)c(OC)cc(OC)c2Cl)cn1.CS(=O)(=O)O [Crystal Form E] | superior
C=CC(=O)N[C@H]1COC[C@H]1Nc1ncc(/C=C(\F)c2c(Cl)c(OC)cc(OC)c2Cl)cn1 [Crystal Form D] | good

Let us move to another entry and its stability under acceleration conditions, conclusion in words.
QUERY: Fill in the blank: the reported stability under acceleration conditions, conclusion in words of C=CC(=O)N[C@H]1COC[C@H]1Nc1ncc(/C=C(\F)c2c(Cl)c(OC)cc(OC)c2Cl)cn1.CS(=O)(=O)O [Crystal Form F] is ____.
RESULT: good

* * *

ASSAY_NOTES: Solid stability test of the crystal forms (influence factors and acceleration tests; appearance, XRPD, HPLC content and impurities)
Format: physicochemical
CONDITION_INFO: Acceleration test (40° C./relative humidity of 75%, open), 10 days
Listing of recorded Content (%) by entry.
Response body: numeric value in %, unit text excluded.

Past entries and their recorded results:
C=CC(=O)N[C@H]1COC[C@H]1Nc1ncc(/C=C(\F)c2c(Cl)c(OC)cc(OC)c2Cl)cn1.CS(=O)(=O)O [Crystal Form F] | 99.22
C=CC(=O)N[C@H]1COC[C@H]1Nc1ncc(/C=C(\F)c2c(Cl)c(OC)cc(OC)c2Cl)cn1 [Crystal Form B] | 101.21
C=CC(=O)N[C@H]1COC[C@H]1Nc1ncc(/C=C(\F)c2c(Cl)c(OC)cc(OC)c2Cl)cn1 [Crystal Form C] | 98.96
C=CC(=O)N[C@H]1COC[C@H]1Nc1ncc(/C=C(\F)c2c(Cl)c(OC)cc(OC)c2Cl)cn1.CS(=O)(=O)O [Crystal Form E] | 99.58
C=CC(=O)N[C@H]1COC[C@H]1Nc1ncc(/C=C(\F)c2c(Cl)c(OC)cc(OC)c2Cl)cn1 [Crystal Form D] | 99.38

Next:
QUERY: GET /values?readout=Content (%)&item= C=CC(=O)N[C@H]1COC[C@H]1Nc1ncc(/C=C(\F)c2c(Cl)c(OC)cc(OC)c2Cl)cn1 [Crystal Form A]
RESULT: 98.98
